// data source = paper PMC12207590

The following compounds are shown together with reported MATE1 (uptake ratio) values.
- assayed_target: MATE1 (Homo sapiens, UniProt Q96FL8)
- Sequence (Q96FL8 1-570): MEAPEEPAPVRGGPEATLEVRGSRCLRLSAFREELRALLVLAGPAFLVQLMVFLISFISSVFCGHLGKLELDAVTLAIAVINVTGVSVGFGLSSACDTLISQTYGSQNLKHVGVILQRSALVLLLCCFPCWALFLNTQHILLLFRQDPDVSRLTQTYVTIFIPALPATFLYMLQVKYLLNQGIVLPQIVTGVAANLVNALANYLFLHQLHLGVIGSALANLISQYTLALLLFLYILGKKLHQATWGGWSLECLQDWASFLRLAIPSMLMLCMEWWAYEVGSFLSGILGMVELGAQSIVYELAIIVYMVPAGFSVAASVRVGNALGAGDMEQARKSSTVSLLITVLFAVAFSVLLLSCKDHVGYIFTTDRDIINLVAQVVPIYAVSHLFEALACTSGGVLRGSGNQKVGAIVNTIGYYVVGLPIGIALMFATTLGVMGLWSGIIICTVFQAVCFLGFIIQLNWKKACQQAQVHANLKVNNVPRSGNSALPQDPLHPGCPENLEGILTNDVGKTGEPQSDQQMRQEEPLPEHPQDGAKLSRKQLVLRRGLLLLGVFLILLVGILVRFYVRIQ
- assay: Uptake ratio in MATE1-overexpressing HEK293 cells vs empty vector (2.5 μM, 1 min, HPLC-MS/MS)
- Type: cell-based

{"compound": "CCCC[N+]1(C)[C@@H]2C[C@@H](OC(=O)[C@H](CO)c3ccccc3)C[C@H]1[C@@H]1O[C@@H]12 (stereo partly drawn)", "MATE1 (uptake ratio)": 23.84}
{"compound": "O=C1CC2(CCCC2)CC(=O)N1CCCCN1CCN(c2ncccn2)CC1", "MATE1 (uptake ratio)": 2.36}
{"compound": "NCCc1cc(O)c(O)cc1O [6-Hydroxydopamine]", "MATE1 (uptake ratio)": 1.05}
